Molecular target: AXL (fusion protein of amino acids 464-885 of the intracellular domain of human AXL with glutathione transferase) (Homo sapiens)
Sequence (P30530 464-885 isoform P30530-2): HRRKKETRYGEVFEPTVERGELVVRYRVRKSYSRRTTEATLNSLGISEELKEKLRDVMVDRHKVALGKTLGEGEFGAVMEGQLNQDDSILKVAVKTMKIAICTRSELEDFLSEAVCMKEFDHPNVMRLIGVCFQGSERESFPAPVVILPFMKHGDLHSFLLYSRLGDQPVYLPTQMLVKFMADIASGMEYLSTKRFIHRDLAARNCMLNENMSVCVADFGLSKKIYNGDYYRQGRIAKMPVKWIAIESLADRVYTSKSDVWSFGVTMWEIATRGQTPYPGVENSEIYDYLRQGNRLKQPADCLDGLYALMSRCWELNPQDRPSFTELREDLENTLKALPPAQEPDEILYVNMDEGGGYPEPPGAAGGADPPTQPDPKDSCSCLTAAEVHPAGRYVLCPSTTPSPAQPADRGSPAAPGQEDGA
Assay: Cell-Free Axl Kinase Inhibitory Activity
Listing of entries alongside the reported IC50.

For orientation, consider the following solved cases.
[
  {
    "compound": "COc1ccc(-c2cnc(N)c(-c3ccc(NC(=O)c4cn(CC(=O)N(C)C)cc(-c5ccc(F)cc5)c4=O)cc3)c2)cc1OC",
    "IC50": "1 to 10 nM"
  },
  {
    "compound": "CCOCCn1cc(C(=O)Nc2ccc(-c3cc(-c4cnn(C[C@H]5COCCO5)c4)cnc3N)cc2)c(=O)c(-c2ccc(F)cc2)c1",
    "IC50": "1 to 10 nM"
  },
  {
    "compound": "CC(O)Cn1cc(-c2cnc(N)c(-c3ccc(NC(=O)c4cn(CCF)cc(-c5ccc(F)cc5)c4=O)cc3)c2)cn1 (racemic)",
    "IC50": "1 to 10 nM"
  },
  {
    "compound": "Cn1cc(-c2cnc(N)c(-c3ccc(NC(=O)c4cn(CCF)cc(-c5ccccc5)c4=O)cc3F)c2)cn1",
    "IC50": "1 to 10 nM"
  },
  {
    "compound": "COc1ccc(-n2cc(-c3ccc(F)cc3)c(=O)c(C(=O)Nc3ccc(-c4cc(-c5cnn(C)c5)cnc4N)cc3)n2)cc1",
    "IC50": "1 to 10 nM"
  }
]

With those in mind, consider the next compound.
Problem: Let me know recorded IC50 for `CCn1cc(C(=O)Nc2ccc(-c3cc(-c4ccc(OC[C@H]5COCCO5)c(OC)c4)cnc3N)cc2)c(=O)c(-c2ccccc2)c1` , thanks.
Result: 1 to 10 nM

====

molecular target: AXL (fusion protein of amino acids 464-885 of the intracellular domain of human AXL with glutathione transferase) (Homo sapiens, UniProt P30530); assay: Cell-Free Axl Kinase Inhibitory Activity
pIC50: −log10 of the molar value.
Measured pIC50, listed per entry.

Problem: Assign pIC50 to the following record: `COC1CN(C(=O)c2cn(Cc3ccc(F)cc3)cc(C(=O)Nc3ccc(-c4cc(-c5cnn(C[C@H]6COCCO6)c5)cnc4N)cc3)c2=O)C1`
Result: 8.00 to 9.00

Problem: Identify measured pIC50 corresponding to `COc1ccc(-c2cnc(N)c(-c3ccc(NC(=O)c4cn(Cc5ccncc5)cc(-c5ccc(F)cc5)c4=O)cc3)c2)cc1OC`
Result: 9.00 to 10.00

Problem: Please give the documented pIC50 of `COc1ccc(-c2cnc(N)c(-c3ccc(NC(=O)c4cn(Cc5ccc(F)cc5)cc(-c5ccc(F)cc5)c4=O)cc3)c2)cc1OC`
Result: 9.00 to 10.00

Problem: Tell me its pIC50 given `COc1ccc(-c2cnc(N)c(-c3ccc(NC(=O)c4cn(CC(F)(F)F)cc(-c5ccc(F)cc5)c4=O)cc3)c2)cc1` as the entry.
Result: 7.70 to 8.00

Problem: Item `CCn1cc(C(=O)Nc2ccc(-c3cc(-c4ccc(OC)c(OC)c4)cnc3N)cc2)c(=O)c(-c2ccccc2)c1` : provide pIC50
Result: 8.00 to 9.00

Problem: Please supply the value of reported pIC50 for the item `CCN(CC)C(=O)c1cn(Cc2ccc(F)cc2)cc(C(=O)Nc2ccc(-c3cc(-c4cnn(C[C@H]5COCCO5)c4)cnc3N)cc2)c1=O`
Result: 8.00 to 9.00

====

Molecular target: phosphorylated Axl (pAxl Y702) in NCI-H1299 cells (Homo sapiens, UniProt P30530)
Construct: endogenous in cells
Sequence (P30530 26-894): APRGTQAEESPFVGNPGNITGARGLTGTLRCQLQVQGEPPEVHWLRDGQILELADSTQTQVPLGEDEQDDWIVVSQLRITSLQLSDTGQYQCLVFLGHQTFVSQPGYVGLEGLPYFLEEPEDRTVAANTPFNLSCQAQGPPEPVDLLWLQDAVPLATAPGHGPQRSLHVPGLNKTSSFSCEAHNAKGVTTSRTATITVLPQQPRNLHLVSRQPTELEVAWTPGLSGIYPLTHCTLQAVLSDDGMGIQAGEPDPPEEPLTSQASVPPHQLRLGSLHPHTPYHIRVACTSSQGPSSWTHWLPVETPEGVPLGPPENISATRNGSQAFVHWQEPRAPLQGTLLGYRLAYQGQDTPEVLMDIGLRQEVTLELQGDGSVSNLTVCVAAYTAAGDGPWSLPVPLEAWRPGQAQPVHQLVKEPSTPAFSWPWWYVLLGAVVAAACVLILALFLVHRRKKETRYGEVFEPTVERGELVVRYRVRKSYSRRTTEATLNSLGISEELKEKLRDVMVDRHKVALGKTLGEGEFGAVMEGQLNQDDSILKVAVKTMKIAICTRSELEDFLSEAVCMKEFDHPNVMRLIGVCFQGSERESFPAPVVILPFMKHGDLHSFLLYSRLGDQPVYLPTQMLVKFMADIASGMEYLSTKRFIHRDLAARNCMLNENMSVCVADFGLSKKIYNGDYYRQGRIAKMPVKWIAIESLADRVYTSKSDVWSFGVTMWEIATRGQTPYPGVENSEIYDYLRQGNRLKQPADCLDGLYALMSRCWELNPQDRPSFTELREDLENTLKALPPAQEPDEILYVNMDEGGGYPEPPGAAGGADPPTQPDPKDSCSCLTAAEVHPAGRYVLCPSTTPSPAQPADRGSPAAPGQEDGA
Assay: Intracellular Axl Phosphorylation Inhibitory Activity (pAxl, NCI-H1299 cells)
Details: 1 h compound incubation, GAS6 stimulation 10 minutes, pAxl (Y702) level
measure name: IC50

Problem: Identify the reported IC50 for the following entry. CC(C)(O)Cn1cc(C(=O)Nc2ccc(-c3cc(-c4cnn(C[C@H]5COCCO5)c4)cnc3N)cc2)c(=O)c(-c2ccc(F)cc2)c1 [Example 68]
Result: 100 to 500 nM

Problem: Report measured IC50; entry is COc1ccc(-c2cnc(N)c(-c3ccc(NC(=O)c4cn(CC(F)(F)F)cc(-c5cccc(F)c5)c4=O)cc3)c2)cc1OC [Example 22]
Result: 50 to 100 nM

Problem: Recall and state the measured IC50 for CCN(CC)CCn1cc(C(=O)Nc2ccc(-c3cc(-c4cnn(C[C@H]5COCCO5)c4)cnc3N)cc2)c(=O)c(-c2ccc(F)cc2)c1 [Example 69] .
Result: 100 to 500 nM

Problem: Given COc1ccc(-c2cnc(N)c(-c3ccc(NC(=O)c4cn(CCO)cc(-c5ccc(F)cc5)c4=O)cc3)c2)cc1OC [Example 7] , respond with its IC50.
Result: 50 to 100 nM

Problem: // Input: COc1ccnc(N)c1-c1ccc(NC(=O)c2cn(Cc3ccc(F)cc3)cc(C(=O)N3CCCC3)c2=O)cc1 [Example 84] . Output its IC50 only.
Result: 100 to 500 nM

Problem: Return value of IC50 for input Nc1ncc(-c2cccc(Cl)c2)cc1-c1ccc(NC(=O)c2cn(CC(F)(F)F)cc(-c3ccc(F)cc3)c2=O)cc1 [Example 36] , no commentary.
Result: 100 to 500 nM

====

biological target: AXL (fusion protein of amino acids 464-885 of the intracellular domain of human AXL with glutathione transferase) (Homo sapiens); assay: Cell-Free Axl Kinase Inhibitory Activity
Below, each entry is listed alongside its reported IC50.

Worked examples follow.
[
  {
    "compound": "COCCn1cc(C(=O)Nc2ccc(-c3cc(-c4cnn(C[C@H]5COCCO5)c4)cnc3N)cc2)c(=O)c(-c2ccc(F)cc2)c1 [Example 66]",
    "measure name": "IC50",
    "assay value": "1 to 10 nM"
  },
  {
    "compound": "COc1ccc(-c2cnc(N)c(-c3ccc(NC(=O)c4cn(CC(F)(F)F)cc(-c5ccc(Cl)cc5)c4=O)cc3)c2)cc1OC [Example 25]",
    "measure name": "IC50",
    "assay value": "1 to 10 nM"
  }
]

Problem: Name the recorded IC50 of the item CCN(CC)CCn1cc(C(=O)Nc2ccc(-c3cc(-c4cnn(C[C@H]5COCCO5)c4)cnc3N)cc2)c(=O)c(-c2ccc(F)cc2)c1 [Example 69] in your answer.
Result: 1 to 10 nM

Problem: Entry Cc1cc(-c2cnc(N)c(-c3ccc(NC(=O)c4cn(CCF)cc(-c5ccc(F)cc5)c4=O)cc3)c2)ccn1 [Example 78] needs its IC50 filled in; supply it.
Result: 1 to 10 nM

Problem: Give the reported value of IC50 for this record: COc1ccnc(N)c1-c1ccc(NC(=O)c2cn(CCF)cc(-c3ccc(F)cc3)c2=O)cc1 [Example 83]
Result: 10 to 20 nM

Problem: Let me know recorded IC50 for COCCOc1ccc(-c2cnc(N)c(-c3ccc(NC(=O)c4cn(CC(F)(F)F)cc(-c5ccc(F)cc5)c4=O)cc3)c2)cc1OC [Example 38] , thanks.
Result: 0.1 to 1 nM
